Data origin: PubChem BioAssay (NCI)

Property: TGI; scope: individual compounds
- System: ACHN renal
- testDescription: NCI tumour cell line growth inhibition, 48 h

CN1C(c2ccccc2)=CC(=O)C(O)=C(c2ccccc2)S1(=O)=O; > 100 µM

Query: Look up and report measured TGI for this entry: Cc1cc2[nH]c3c(C#N)c(-c4ccccc4)c(N=Nc4cccc(C(F)(F)F)c4)c(=O)n3c2cc1C
Reply: > 100 µM

Query: Look up and report measured TGI for this entry: CS(=O)(=O)CCNCc1ccc(-c2ccc3ncnc(Nc4ccc(OCc5cccc(C(F)(F)F)c5)cc4)c3c2)o1
Reply: > 25 µM

Query: Look up and report measured TGI for this entry: CC(=O)[O-].CC(=O)[O-].O=C(N/N=C/c1cc(Cl)cc(Cl)c1[OH2+])c1ccncc1.[Co+2]
Reply: > 100 µM

* * *

- System: MDA-MB-231 breast
- testDescription: NCI tumour cell line growth inhibition, 48 h
measure: TGI

Past entries and their recorded results:
O=C(O)CSCC(=O)Nc1ccc2cccc3c2c1CC3; > 100 µM
CCOP(=O)(Nc1ccc(-c2ccccc2)cc1)OCC; > 100 µM

Query: Under MDA-MB-231 breast: report TGI of COc1ccc(O)c(C(=O)c2ccc(C(=O)O[C@@H]3CCCNC[C@H]3NC(=O)c3ccncc3)cc2)c1F .
Reply: > 25 µM

Query: Under MDA-MB-231 breast: report TGI of O=Cc1ccc(-c2ccc(-c3ccc(C=O)s3)o2)s1 .
Reply: > 100 µM

Query: Under MDA-MB-231 breast: report TGI of Cc1ccc2c(c1)NC(=O)CCSSCCC(=O)N2 .
Reply: > 100 µM

Query: Under MDA-MB-231 breast: report TGI of C1COC(NC(C2CC2)C2CC2)=N1 .
Reply: > 100 µM

* * *

- Test system: SNB-75 CNS
- testDescription: NCI tumour cell line growth inhibition, 48 h
Property: TGI; scope: individual compounds
Dear colleague, please return just the value in µM, with no unit written.

CN1CCN(c2ccc3nc(-c4cc(C(C)(C)C)c(O)c(C(C)(C)C)c4)[nH]c3c2)CC1; 3.65
CC1(c2ccc(Cl)cc2)CC(c2ccc(Cl)cc2)=C(C#N)C(=C(C#N)C#N)N1 (stereo not drawn); 34.7
COc1ccc2c(c1)CC[C@@H]1[C@@H]2CC[C@@]2(C)[C@H]1CC1(CCCCC1)[C@@H]2O; 35.1
CCN(CC)c1ccc2c(c1)Oc1nc(N)c(C#N)c(N)c1C2Sc1ccc(SC)cc1 (stereo not drawn); 3.17
N#Cc1ccccc1C#C/C=C\C#Cc1ccc(OCCCNC(=O)c2cc3ccccc3[nH]2)cc1; 42.6

Query: Look up and report measured TGI for this entry: Cc1ccc(/C=C/C(=O)c2c([O-])on[n+]2-c2ccccc2)cc1
Reply: 4.87

Query: Look up and report measured TGI for this entry: O=C(Oc1ccccc1)c1cc2cc(CCl)ccc2oc1=O
Reply: 57.3

Query: Look up and report measured TGI for this entry: CCCCC(=O)N/N=C/c1cc(I)cc(I)c1O
Reply: 26.5

Query: Look up and report measured TGI for this entry: Cc1nc2c(o1)C(=O)c1ccccc1/C2=N/c1ccccn1
Reply: 20.9

Query: Look up and report measured TGI for this entry: Cc1cc(N(CCC#N)CCC#N)ccc1/C(N=Nc1cccc([N+](=O)[O-])c1)=N/NC(=O)c1cc(Cl)ccc1O
Reply: 82.6
